Here's a batch of compounds along with measured log10 of IC50 for VEGFR2 (Homo sapiens).
Record value = log10 of IC50 given in nM.

Example results:
[
  {
    "smiles.data": "COCCOc1cc2nccc(Oc3ccc(NC(=O)NCCF)c(F)c3)c2cc1C(N)=O",
    "log10 of IC50": 0.91
  },
  {
    "smiles.data": "CCOC(=O)/C=C/c1c(Oc2ccc(NC(=O)Nc3ccc(F)cc3)cc2)ccnc1NC(=O)C1CC1",
    "log10 of IC50": 1.77
  },
  {
    "smiles.data": "COCCOc1cc2nccc(Sc3ccc(NC(=O)Nc4cccc(C#N)c4)s3)c2cc1C#N",
    "log10 of IC50": 1.04
  },
  {
    "smiles.data": "COCCOc1cc2nccc(Oc3ccc(NC(=O)NC4CC4)cc3)c2cc1C(N)=O",
    "log10 of IC50": 0.62
  }
]

Input line: Supply recorded log10 of IC50 for COCCOc1cc2nccc(Oc3ccc(NC(=O)Nc4cccc(S(C)(=O)=O)c4)c(F)c3)c2cc1C#N here.
Output line: 0.53

Input line: Supply recorded log10 of IC50 for COCCOc1cc2nccc(Oc3ccc(NC(=O)NCCCF)c(F)c3)c2cc1C(N)=O here.
Output line: 0.73

Input line: Supply recorded log10 of IC50 for COCCOc1cc2nccc(Oc3ccc(NC(=O)Nc4ccccc4)c(F)c3)c2cc1C#N here.
Output line: 0.93

Input line: Supply recorded log10 of IC50 for CCNC(=O)n1ccc2cc(Oc3ccnc4cc(OC)c(C(N)=O)cc34)ccc21 here.
Output line: 0.81

====

test system: Human Umbilical Vein Endothelial Cells (HUVECs); experiment: Inhibition against invasive tube formation by vascular endothelial cells in response to stimulation by angiogenic factor mixture; assay type: cell-based; parameters: key: the number of tubes formed in the absence of the test substance was designated as +++; scored on the 5-level scale of +++, ++, +, +/−, −; scored on the 5-level scale of +++, ++, +, +/−, −; scored on the 5-level scale of +++, ++, +, +/−, −; − was assigned if absolutely no tubes formed; conditions: test substance 0.1 μM; HUVEC on fibrin gel, EGF/FGF2/VEGF/HGF/TNF-α mixture, 6th day, MTT staining
parameter: number of tubes formed in the fibrin gel (score) at 0.1 μM

Example results:
[
  {
    "smiles.data": "COCCOc1cc2nccc(Oc3ccc(NC(=O)Nc4nccs4)c(F)c3)c2cc1C#N",
    "result": "+/−"
  },
  {
    "smiles.data": "O=C(CCCN1CCC(O)CC1)Nc1cc(Oc2ccc3c(ccn3C(=O)Nc3ccccc3)c2)ccn1",
    "result": "−"
  },
  {
    "smiles.data": "COCCOc1cc2nccc(Oc3ccc(NC(=O)Nc4ccc(F)cc4)c(F)c3)c2cc1C#N",
    "result": "+/−"
  },
  {
    "smiles.data": "CCN1CCN(CCCOc2cc3nccc(Oc4ccc(NC(=O)Nc5ccc(OC)cc5)cc4)c3cc2C#N)CC1",
    "result": "+/−"
  },
  {
    "smiles.data": "O=C(Nc1ccc(Oc2ncnc3[nH]c(-c4ccccc4)cc23)cc1)Nc1cccc(F)c1",
    "result": "+/−"
  },
  {
    "smiles.data": "CS(=O)(=O)c1cccc(NC(=O)Nc2ccc(Oc3ccnc4cc(OCCCN5CCOCC5)c(C#N)cc34)cc2)c1",
    "result": "−"
  }
]

Input line: Supply recorded number of tubes formed in the fibrin gel (score) at 0.1 μM for N#CCCCOc1cc2nccc(Oc3ccc(NC(=O)Nc4ccc(F)cc4F)c(F)c3)c2cc1C#N here.
Output line: +/−

Input line: Supply recorded number of tubes formed in the fibrin gel (score) at 0.1 μM for COc1cc2nccc(Oc3ccc(NC(=O)NC4CC4)c(Cl)c3)c2cc1C(=O)NCCS(C)(=O)=O here.
Output line: −

====

system: Human Umbilical Vein Endothelial Cells (HUVECs); experiment: Inhibition against sandwich tube formation by vascular endothelial cells in response to stimulation by VEGF; format: cell-based; conditions: HUVEC in collagen gel sandwich, stimulation by VEGF (25 ng/ml VEGF and 10 ng/ml EGF), 4th day, total tube length, read-out: IC50 (concentration required for 50% inhibition of tube formation)
Note to self: use t only for IC50 readings below 8 nM; a reading exactly at 8 nM still gets f.

Solved entries (count: 7):
[
  {
    "smiles.data": "COc1cc2nccc(Oc3ccc(NC(=O)NC4CC4)c(Cl)c3)c2cc1C(=O)NC[C@H]1CCCO1",
    "answer.label": "t"
  },
  {
    "smiles.data": "CCN1CCN(CCCOc2cc3nccc(Oc4ccc(NC(=O)Nc5ccc(OC)cc5)cc4)c3cc2C#N)CC1",
    "answer.label": "f"
  },
  {
    "smiles.data": "CCOCCCNC(=O)n1ccc2cc(Oc3ccnc4cc(OC)c(C(N)=O)cc34)ccc21",
    "answer.label": "t"
  },
  {
    "smiles.data": "NC(=O)c1cc2c(Oc3ccc(NC(=O)NC4CC4)c(Cl)c3)ccnc2cc1OCCO",
    "answer.label": "f"
  },
  {
    "smiles.data": "COCCOc1cc2nccc(Oc3ccc(NC(=O)Nc4nccs4)cc3)c2cc1C#N",
    "answer.label": "f"
  },
  {
    "smiles.data": "COCCNC(=O)c1cc2c(Oc3ccc(NC(=O)NC4CC4)c(Cl)c3)ccnc2cc1OCCOC",
    "answer.label": "t"
  },
  {
    "smiles.data": "CCN(CC)CCCOc1cc2nccc(Oc3ccc4[nH]ccc4c3)c2cc1C#N",
    "answer.label": "f"
  }
]

Input line: Say whether its IC50 is strictly beneath 8 nM. Entry: CCN(CC)CCCOc1cc2nccc(Oc3ccc4c(ccn4C(=O)Nc4nccs4)c3)c2cc1C#N
Output line: t

====

system: Human Umbilical Vein Endothelial Cells (HUVECs); test: Inhibition against invasive tube formation by vascular endothelial cells in response to stimulation by angiogenic factor mixture; assay type: cell-based; design: key: the number of tubes formed in the absence of the test substance was designated as +++; scored on the 5-level scale of +++, ++, +, +/−, −; scored on the 5-level scale of +++, ++, +, +/−, −; scored on the 5-level scale of +++, ++, +, +/−, −; − was assigned if absolutely no tubes formed; details: test substance 0.1 μM; HUVEC on fibrin gel, EGF/FGF2/VEGF/HGF/TNF-α mixture, 6th day, MTT staining
parameter: number of tubes formed in the fibrin gel (score) at 0.1 μM

Example results:
[
  {
    "smiles.data": "CCN(CC)CCCOc1cc2nccc(Oc3ccc4c(ccn4C(=O)NC4CC4)c3)c2cc1C#N",
    "result": "−"
  },
  {
    "smiles.data": "COc1cc2nccc(Oc3ccc(NC(=O)NC4CC4)c(Cl)c3)c2cc1C(=O)NCCF",
    "result": "−"
  },
  {
    "smiles.data": "CN1CCC(COc2cc3nccc(Oc4ccc(NC(=O)NC5CC5)c(Cl)c4)c3cc2C#N)CC1",
    "result": "−"
  },
  {
    "smiles.data": "CCNC(=O)n1ccc2cc(Oc3ccnc4cc(OC)c(C(N)=O)cc34)ccc21",
    "result": "−"
  }
]

Please look at the following compound next.
Input line: Supply recorded number of tubes formed in the fibrin gel (score) at 0.1 μM for COc1cc2nccc(Sc3ccc(NC(=O)Nc4ccc(F)cc4)s3)c2cc1C(N)=O here.
Output line: −

====

system: Human Umbilical Vein Endothelial Cells (HUVECs); assay: Inhibition against sandwich tube formation by vascular endothelial cells in response to stimulation by VEGF; type: cell-based; conditions: HUVEC in collagen gel sandwich, stimulation by VEGF (25 ng/ml VEGF and 10 ng/ml EGF), 4th day, total tube length, read-out: IC50 (concentration required for 50% inhibition of tube formation)
parameter: pIC50
Scale: negative log10 of molar concentration, which is what pIC50 denotes.

[
  {
    "molecule": "COc1cc2nccc(Oc3ccc(NC(=O)NC4CC4)c(Cl)c3)c2cc1C(=O)NCCC#N [Example 440]",
    "parameter": "pIC50",
    "measured.number": 8.85
  },
  {
    "molecule": "COCCOc1cc2nccc(Sc3ccc(NC(=O)Nc4ccc(F)cc4)s3)c2cc1C#N [Example 253]",
    "parameter": "pIC50",
    "measured.number": 7.40
  },
  {
    "molecule": "COCCOc1cc2nccc(Oc3ccc(NC(=O)Nc4ccc(F)cc4)c(F)c3)c2cc1C#N [Example 100]",
    "parameter": "pIC50",
    "measured.number": 8.20
  }
]

Input line: Supply recorded pIC50 for CCCC(=O)Nc1cc(Oc2ccc(NC(=O)Nc3ccc(F)cc3)cc2)ccn1 [Example 463] here.
Output line: 7.59

Input line: Supply recorded pIC50 for CN1CCCC(COc2cc3nccc(Oc4ccc(NC(=O)Nc5nccs5)c(F)c4)c3cc2C#N)C1 (centres unmarked) [Example 505] here.
Output line: 8.05

Input line: Supply recorded pIC50 for CN1CCC(CC(=O)Nc2cc(Oc3ccc4c(ccn4C(=O)Nc4ccccc4)c3)ccn2)CC1 [Example 204] here.
Output line: 9.05

Input line: Supply recorded pIC50 for CCN(CC)CCOc1ccc(-c2cc3c(Oc4ccc(NC(=O)NC5CC5)c(Cl)c4)ncnc3[nH]2)cc1 [Example 153] here.
Output line: 10.70

Input line: Supply recorded pIC50 for COc1cc2nccc(Oc3ccc(NC(=O)Nc4ccccc4)cn3)c2cc1OC [Example 129] here.
Output line: 7.40
